Molecular target: HLA-A*03:01
Experiment: IEDB peptide-MHC binding, purified MHC/competitive/radioactivity; filed as Kd, often an IC50 or EC50 that approximates it; bounds were set here for any values at or beyond the usual limits of such assays
Conditions: source organism: Vaccinia virus WR
property-name: Kd (nM)
Use nM as the unit, but write only the number.

Check out these entries, answers already filled in.
KIVDHIVMY ... 17.9
IFREIASSMK ... 198
NTRQLKLLEY ... 969

Field: next sequence
Q: For the sequence shown here, "VIGLTTHCTK" , give the reported Kd.
Result: 15.4

###

Target: HLA-B*27:02
Assay: IEDB peptide-MHC binding, purified MHC/direct/fluorescence; filed as Kd, often an IC50 or EC50 that approximates it; bounds were set here for any values at or beyond the usual limits of such assays
Conditions: source organism: Orthomarburgvirus marburgense
property-name: Kd (µM)
I only need the number, in µM, no unit after it.

Q: Recorded Kd for "KRLLLKLDF" , please?
Result: 12.2
